B1: POU domain, class 2, transcription factor 3, residues 186 to 260; numbered along this chain, Q9UKI9 (parent)
chain: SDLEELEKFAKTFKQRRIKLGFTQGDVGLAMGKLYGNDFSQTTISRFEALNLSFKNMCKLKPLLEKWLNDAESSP

Variants of: B1
MEASUREMENT DESCRIPTION: abundance fitness (aPCA) (normalised: wild type 0, dead -1); higher = more abundant; growth selection in yeast, the domain comes from the species named
ASSAY CONDITIONS: Homo sapiens
RECORDED METRIC: abundance fitness
Give the figure by itself; no unit, no explanation.

Name the recorded abundance fitness for N56G . -0.05

Endpoint output: abundance fitness of I44P . Value? -0.919

Tell me the measured abundance fitness of D70R , please. -0.049

So what's the measured abundance fitness for this one? F22A 0.146

If you can, please state the reported abundance fitness value of I18Q . 0.086

// abundance fitness lookup, key: P62A -0.16

What measured abundance fitness goes with R46K ? 0.052

Query: abundance fitness; subject: L64P -0.802

Data request, read-out abundance fitness, for K55I -0.12

Need abundance fitness of S73C , thanks. -0.087

Requested field: abundance fitness. Item: K59V -0.086

What abundance fitness value was documented for this variant, E72R ? -0.122

Any idea what abundance fitness was measured for P62Y ? -0.624

Consider the variant shown here: I18P What is its recorded abundance fitness? -0.964

Give the measured abundance fitness of P75A . 0.044

So what's the measured abundance fitness for this one? K66I -0.142

Any idea what its abundance fitness is? The variant is N69L -0.068

Requested read-out: abundance fitness. Entry: I44L -0.149

I have this variant here, Q41V , and I need its recorded abundance fitness. -0.081

// abundance fitness lookup, key: L3F -0.055

Please give the measured abundance fitness for this variant: A71C -0.169

Please give the measured abundance fitness for this variant: L6S -0.16

Look up abundance fitness: N69G 0.042

Looking for the measured abundance fitness of E72D , can you help? -0.037

Look up abundance fitness for this variant: S45I -0.125

Param item = F47C ; retrieve measured abundance fitness. -0.845

Fill in the blank: the reported abundance fitness of M57S is ____. -0.02

// query abundance fitness value for entry N56K -0.024

Any idea what its abundance fitness is? The variant is N69M -0.008

Using the record for L50T , report its abundance fitness. -0.003

Fill in: abundance fitness of N51P is ___ -0.844

Quick one: abundance fitness of I18K ? -0.028

Consider the variant shown here: W67Y What is its recorded abundance fitness? 0.005

Given the entry K59G , report its measured abundance fitness. -0.086

Reported abundance fitness, variant Q41H : ____ -0.001

If you can, please state the reported abundance fitness value of K66R . -0.024

Returns the measured abundance fitness for the input variant. Input: L29E 0.02

# abundance fitness lookup, item N51Q -0.011

Consider the variant E48T and give its measured abundance fitness. -1.25

# abundance fitness lookup, item L52K -0.618

What value of abundance fitness has been reported for the following variant? P75M -0.059

abundance fitness lookup needed for I18L , thanks. -0.025

# get_value(readout='abundance fitness', item= F47R ) -1.08

Which abundance fitness is listed for S74C ? -0.009

Which value of abundance fitness has been reported for L52A in the records? -0.148

Return reported abundance fitness; argument: G21S -0.504
